Reference source for all entries: the kinase profiling compilation of Christmann-Franck et al. (2016)

Biological target: MAPK10 (human)
Experiment: radiometric filter-binding kinase assay
Conditions: compound 10.0 µM
measurementLabel: residual activity (%)

- compound: "O=C(O)c1cc(N=Nc2ccc(S(=O)(=O)Nc3ccccn3)cc2)ccc1O"
  residual activity / %: 107
- compound: "CC(C)(C#N)c1ccc(N2C(=O)OCc3cnc4ccc(-c5cnc6ccccc6c5)cc4c32)cc1"
  residual activity / %: 77
- compound: "NS(=O)(=O)OC[C@@H]1C[C@@H](n2ccc3c(N[C@H]4CCc5ccccc54)ncnc32)C[C@@H]1O"
  residual activity / %: 82
- compound: "COc1cc2ncn(-c3cc(OCc4ccccc4S(C)(=O)=O)c(C#N)s3)c2cc1OC"
  residual activity / %: 77

I = Cn1nc(Nc2ccc(F)cc2)c2c(N)ncnc21
II = N#Cc1c(C2CCNCC2)cc(-c2c(O)cccc2OCC2CC2)nc1N
Given the two records I and II , choose the one whose residual activity value is lower. Respond with the label that goes with your answer. II

---

Biological target: BTK (human)
Test: radiometric filter-binding kinase assay
Conditions: compound 1.0 µM
measurementLabel: residual activity (%)

- molecularString: "Cc1cc(SCc2sc(-c3ccc(C(F)(F)F)cc3)nc2C)ccc1OCC(=O)O"
  targetOfAssay: "BTK (human)"
  residual activity / %: 92
- molecularString: "O=C(N[C@@H](COc1ccc2[nH]c(=O)[nH]c2c1)c1ccccc1)c1cccn(Cc2ccc(F)c(F)c2)c1=O"
  targetOfAssay: "BTK (human)"
  residual activity / %: 108
- molecularString: "COc1cc(O)c2c(c1)/C=C/C[C@H](O)[C@H](O)C(=O)/C=C\\C[C@H](C)OC2=O"
  targetOfAssay: "BTK (human)"
  residual activity / %: 93
- molecularString: "NC(=O)c1cc2c(-c3cccc(-c4ccccc4)c3)cnc(N)c2s1"
  targetOfAssay: "BTK (human)"
  residual activity / %: 94

---

Biological target: TBK1 (human) (UniProt Q9UHD2)
Sequence (Q9UHD2 whole entry, looked up): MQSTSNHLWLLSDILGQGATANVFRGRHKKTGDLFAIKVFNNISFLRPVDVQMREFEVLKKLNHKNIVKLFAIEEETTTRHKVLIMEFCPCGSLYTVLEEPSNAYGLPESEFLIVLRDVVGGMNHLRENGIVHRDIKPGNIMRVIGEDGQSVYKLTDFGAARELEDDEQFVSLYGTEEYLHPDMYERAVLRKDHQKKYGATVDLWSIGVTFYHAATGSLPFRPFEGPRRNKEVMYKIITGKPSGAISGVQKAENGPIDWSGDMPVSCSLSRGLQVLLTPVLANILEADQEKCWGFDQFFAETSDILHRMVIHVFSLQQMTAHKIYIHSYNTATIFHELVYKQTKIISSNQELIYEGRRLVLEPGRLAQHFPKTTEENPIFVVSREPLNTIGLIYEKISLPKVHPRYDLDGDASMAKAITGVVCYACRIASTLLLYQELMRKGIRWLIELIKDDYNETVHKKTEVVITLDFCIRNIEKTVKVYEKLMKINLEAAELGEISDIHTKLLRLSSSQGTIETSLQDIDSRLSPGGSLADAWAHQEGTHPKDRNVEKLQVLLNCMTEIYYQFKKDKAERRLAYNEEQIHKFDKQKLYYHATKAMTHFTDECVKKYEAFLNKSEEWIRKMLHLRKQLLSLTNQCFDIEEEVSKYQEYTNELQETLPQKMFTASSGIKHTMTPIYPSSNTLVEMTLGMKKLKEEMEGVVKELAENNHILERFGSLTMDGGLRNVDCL
Assay: radiometric filter-binding kinase assay
Details: compound 0.1 µM
measurementLabel: residual activity (%)

- molecularString: "CCn1c(-c2nonc2N)nc2cncc(CNC3CCNCC3)c21"
  targetOfAssay: "TBK1 (human) (UniProt Q9UHD2)"
  residual activity, %: 88
- molecularString: "NC(=O)c1cc2c(-c3cccc(-c4ccccc4)c3)cnc(N)c2s1"
  targetOfAssay: "TBK1 (human) (UniProt Q9UHD2)"
  residual activity, %: 98
- molecularString: "O=C(Nc1ccccc1-c1cn2c(CN3CCNCC3)csc2n1)c1cnc2ccccc2n1"
  targetOfAssay: "TBK1 (human) (UniProt Q9UHD2)"
  residual activity, %: 97

---

Molecular target: ERBB4 (human)
Assay: radiometric filter-binding kinase assay
Settings: compound 10.0 µM
measurementLabel: residual activity (%)

- molecularString: "O=C(Nc1ccccc1-c1cn2c(CN3CCNCC3)csc2n1)c1cnc2ccccc2n1"
  residual activity (%): 86

P = C=CC(=O)N1CCC[C@@H](n2nc(-c3ccc(Oc4ccccc4)cc3)c3c(N)ncnc32)C1
Q = NC(=O)c1cc2c(-c3cccc(-c4ccccc4)c3)cnc(N)c2s1
R = NS(=O)(=O)OC[C@@H]1C[C@@H](n2ccc3c(N[C@H]4CCc5ccccc54)ncnc32)C[C@@H]1O
S = O=c1c(O)c(-c2ccc(O)c(O)c2)oc2cc(O)c(O)c(O)c12
T = CCNc1nc(Nc2cc(F)c(C(=O)N3CCOCC3)cc2OC)ncc1C(F)(F)F
Sort the 5 compounds by residual activity; largest first, smallest last. Would you mind listing the labels in the order requested? R, T, S, Q, P

---

Molecular target: MST4 (human) (UniProt Q9P289)
Sequence (Q9P289 whole entry, looked up): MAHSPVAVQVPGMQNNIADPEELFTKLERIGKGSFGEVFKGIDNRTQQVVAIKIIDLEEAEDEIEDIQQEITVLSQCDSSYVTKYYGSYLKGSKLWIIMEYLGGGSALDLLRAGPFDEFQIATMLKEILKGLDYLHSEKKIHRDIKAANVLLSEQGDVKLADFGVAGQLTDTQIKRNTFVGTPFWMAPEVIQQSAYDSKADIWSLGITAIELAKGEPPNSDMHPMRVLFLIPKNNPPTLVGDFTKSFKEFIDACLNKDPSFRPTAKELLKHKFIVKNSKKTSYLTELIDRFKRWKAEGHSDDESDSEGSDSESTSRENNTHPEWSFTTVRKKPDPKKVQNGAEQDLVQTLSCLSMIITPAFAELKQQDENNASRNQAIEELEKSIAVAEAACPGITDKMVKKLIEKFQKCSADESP
Assay: radiometric filter-binding kinase assay
Details: compound 10.0 µM
measurementLabel: residual activity (%)

Field: example entries. Status: answers known.
- compound: "Oc1ccc(/C=C/c2cc(O)cc(O)c2)cc1"
  targetOfAssay: "MST4 (human) (UniProt Q9P289)"
  residual activity (%): 68
- compound: "FC(F)(F)c1ccc(-c2ccc(Oc3cncc4sc(-c5nn[nH]n5)cc34)cc2)cc1"
  targetOfAssay: "MST4 (human) (UniProt Q9P289)"
  residual activity (%): 71
- compound: "NC(=O)c1c(NC(=O)C2CC2)sc2c1CCCC2"
  targetOfAssay: "MST4 (human) (UniProt Q9P289)"
  residual activity (%): 57
- compound: "NC(=O)c1ccc(-c2ccc(Oc3cncc4sc(-c5nn[nH]n5)cc34)cc2)cc1"
  targetOfAssay: "MST4 (human) (UniProt Q9P289)"
  residual activity (%): 61
- compound: "Cc1ccc2c(c1)C(=O)[C@@]1(O)CCN(c3ccccc3)C1=N2"
  targetOfAssay: "MST4 (human) (UniProt Q9P289)"
  residual activity (%): 99

a = CCOC(=O)c1ccc(N2NC(=O)/C(=C/c3ccc([N+](=O)[O-])o3)C2=O)cc1
b = COc1cc2ncn(-c3cc(OCc4ccccc4S(C)(=O)=O)c(C#N)s3)c2cc1OC
Given the two records a and b , choose the one whose residual activity value is lower. Respond with the label that goes with your answer. b
(b: 47%, a: 87%)

---

Biological target: INSRR (human) (UniProt P14616)
Sequence (P14616 whole entry, looked up): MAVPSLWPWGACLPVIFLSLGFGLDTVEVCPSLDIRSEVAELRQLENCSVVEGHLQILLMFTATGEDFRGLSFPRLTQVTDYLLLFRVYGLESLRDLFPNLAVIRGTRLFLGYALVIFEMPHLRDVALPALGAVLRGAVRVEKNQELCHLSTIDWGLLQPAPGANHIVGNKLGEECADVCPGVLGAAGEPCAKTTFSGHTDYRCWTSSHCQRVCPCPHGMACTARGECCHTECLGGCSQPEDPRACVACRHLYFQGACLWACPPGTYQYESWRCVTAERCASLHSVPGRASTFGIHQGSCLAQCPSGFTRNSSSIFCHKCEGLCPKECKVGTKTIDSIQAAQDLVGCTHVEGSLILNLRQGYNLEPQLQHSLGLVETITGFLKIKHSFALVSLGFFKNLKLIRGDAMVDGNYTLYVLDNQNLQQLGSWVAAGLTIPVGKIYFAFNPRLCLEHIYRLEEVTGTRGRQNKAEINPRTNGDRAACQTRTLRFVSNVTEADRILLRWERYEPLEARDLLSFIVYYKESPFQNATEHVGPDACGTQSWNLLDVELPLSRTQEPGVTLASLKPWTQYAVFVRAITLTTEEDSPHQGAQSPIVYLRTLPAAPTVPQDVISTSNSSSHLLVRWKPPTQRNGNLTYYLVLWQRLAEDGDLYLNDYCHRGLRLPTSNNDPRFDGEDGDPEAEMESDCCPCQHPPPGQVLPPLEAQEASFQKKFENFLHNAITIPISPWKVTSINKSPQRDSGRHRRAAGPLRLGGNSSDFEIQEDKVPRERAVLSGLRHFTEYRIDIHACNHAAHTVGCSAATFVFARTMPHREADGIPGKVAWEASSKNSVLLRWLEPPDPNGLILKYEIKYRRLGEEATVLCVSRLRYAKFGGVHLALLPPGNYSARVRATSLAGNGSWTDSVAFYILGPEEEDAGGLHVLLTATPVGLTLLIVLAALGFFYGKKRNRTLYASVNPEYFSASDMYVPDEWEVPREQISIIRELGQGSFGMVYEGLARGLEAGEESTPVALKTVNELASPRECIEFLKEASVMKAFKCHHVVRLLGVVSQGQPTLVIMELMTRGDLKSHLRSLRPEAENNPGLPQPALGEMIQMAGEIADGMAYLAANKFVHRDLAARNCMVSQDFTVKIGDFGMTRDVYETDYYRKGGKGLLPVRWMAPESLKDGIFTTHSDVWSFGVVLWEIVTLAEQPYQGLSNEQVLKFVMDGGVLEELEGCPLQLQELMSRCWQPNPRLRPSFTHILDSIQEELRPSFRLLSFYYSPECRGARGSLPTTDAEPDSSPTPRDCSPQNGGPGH
Assay: radiometric filter-binding kinase assay
Conditions: compound 1.0 µM
measurementLabel: residual activity (%)

- molecularString: "O=C(Nc1cccnc1)c1cc(-c2ccnc(F)c2)ccc1OCc1ccccc1"
  unitOfMeasurement: "%"
  residual activity: 76
- molecularString: "O=C1NC(=S)N[C@@H]1Cc1c[nH]c2ccccc12"
  unitOfMeasurement: "%"
  residual activity: 83
- molecularString: "Cc1ccc(-c2ccc3c(ccc4sc5c(c43)NC[C@@H](C)NC5=O)n2)cn1"
  unitOfMeasurement: "%"
  residual activity: 79
- molecularString: "COc1cc(C(=O)N2CCOCC2)c(F)cc1Nc1ncc(C(F)(F)F)c(NC2CC2)n1"
  unitOfMeasurement: "%"
  residual activity: 84

---

Target: MAP2K1 (human) (UniProt Q02750)
Sequence (Q02750 whole entry, looked up): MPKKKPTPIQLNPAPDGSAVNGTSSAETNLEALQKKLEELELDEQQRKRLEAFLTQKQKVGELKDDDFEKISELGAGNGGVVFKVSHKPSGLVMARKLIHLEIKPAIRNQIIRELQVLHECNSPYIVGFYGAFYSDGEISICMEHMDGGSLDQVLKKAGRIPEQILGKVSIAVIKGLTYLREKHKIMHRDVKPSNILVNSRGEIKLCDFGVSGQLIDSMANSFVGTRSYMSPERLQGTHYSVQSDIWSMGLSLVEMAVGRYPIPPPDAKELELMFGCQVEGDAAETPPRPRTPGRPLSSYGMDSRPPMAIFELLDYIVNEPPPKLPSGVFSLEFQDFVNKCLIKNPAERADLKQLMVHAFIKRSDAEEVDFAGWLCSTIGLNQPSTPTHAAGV
Test: radiometric filter-binding kinase assay
Details: compound 1.0 µM
measurementLabel: residual activity (%)

Field: example entries. Status: answers known.
- compound: "NC1(c2ccc(-c3nc4ccn5c(=O)[nH]nc5c4cc3-c3ccccc3)cc2)CCC1"
  residual activity (%): 72
- compound: "O=C(Nc1nc2cc(C(F)(F)F)cc(NC3CC3)n2n1)c1cccnc1"
  residual activity (%): 61
- compound: "O=C(Nc1cccnc1)c1cc(-c2ccnc(F)c2)ccc1OCc1ccccc1"
  residual activity (%): 77
- compound: "NCC(=O)Nc1ccc(-n2nc(C(F)(F)F)cc2-c2ccc3c(ccc4ccccc43)c2)cc1"
  residual activity (%): 108

I = CC(C)(C#N)c1ccc(N2C(=O)OCc3cnc4ccc(-c5cnc6ccccc6c5)cc4c32)cc1
II = COc1ccc2c(c1)c1c3c(c4c5ccccc5n(C)c4c1n2CC(O)CN(C)C)C(=O)NC3=O (stereo unspecified)
# argmax over residual activity for candidates I and II Respond with the label that goes with your answer. I
(I: 78%, II: 27%)

---

Test system: AKT2 (human), P31751 [S474D]
Sequence (P31751 whole entry S474D, looked up): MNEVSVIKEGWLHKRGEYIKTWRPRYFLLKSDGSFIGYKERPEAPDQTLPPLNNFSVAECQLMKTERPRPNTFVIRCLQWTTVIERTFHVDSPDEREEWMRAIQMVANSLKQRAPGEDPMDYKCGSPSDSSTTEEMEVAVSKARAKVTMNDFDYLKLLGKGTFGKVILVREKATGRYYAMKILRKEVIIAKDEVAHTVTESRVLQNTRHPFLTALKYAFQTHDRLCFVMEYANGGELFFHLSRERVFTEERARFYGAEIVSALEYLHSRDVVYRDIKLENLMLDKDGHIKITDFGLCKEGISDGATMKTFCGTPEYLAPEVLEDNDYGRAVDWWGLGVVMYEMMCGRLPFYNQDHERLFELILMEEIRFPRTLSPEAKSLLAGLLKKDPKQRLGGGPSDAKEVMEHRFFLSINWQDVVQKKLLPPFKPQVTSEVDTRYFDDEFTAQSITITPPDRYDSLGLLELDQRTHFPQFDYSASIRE
Experiment: radiometric filter-binding kinase assay
Conditions: compound 0.1 µM
measurementLabel: residual activity (%)

- molecule: "O=C(Nc1ccccc1-c1cn2c(CN3CCNCC3)csc2n1)c1cnc2ccccc2n1"
  residual activity / %: 75
- molecule: "COc1cc(O)c2c(c1)/C=C/C[C@H](O)[C@H](O)C(=O)/C=C\\C[C@H](C)OC2=O"
  residual activity / %: 86
- molecule: "NC(=O)Nc1ccc2c(c1)/C(=C/c1cc(-c3cccnc3)c[nH]1)C(=O)N2"
  residual activity / %: 88
- molecule: "c1ccc2c(-c3cnn4cc(-c5ccc(N6CCNCC6)cc5)cnc34)ccnc2c1"
  residual activity / %: 77
- molecule: "Cn1c(=O)c2c(ncn2C)n(C)c1=O"
  residual activity / %: 81
- molecule: "COc1ccc(N(C(=O)Nc2c(C)cccc2C)c2cc(Nc3ccc(N4CCN(C)CC4)cc3)ncn2)c(OC)c1"
  residual activity / %: 83
- molecule: "O=C(O)c1ccc(-c2c[nH]c3ncc(-c4ccccc4)cc23)cc1C1CCCC1"
  residual activity / %: 86
- molecule: "O=C(Nc1nc2cc(C(F)(F)F)cc(NC3CC3)n2n1)c1cccnc1"
  residual activity / %: 103
- molecule: "CCc1cncnc1N1CCN(Cc2nc3cc(C(F)(F)F)ccc3[nH]2)CC1"
  residual activity / %: 74
- molecule: "COc1ccc2c(c1)c1c3c(c4c5ccccc5n(C)c4c1n2CC(O)CN(C)C)C(=O)NC3=O (stereo not given)"
  residual activity / %: 80
- molecule: "CCn1c(-c2nonc2N)nc2cncc(CNC3CCNCC3)c21"
  residual activity / %: 101
- molecule: "NC(=O)c1cc(-c2ccnc(NC3CCCCC3)c2)nc(N2CCNCC2)c1"
  residual activity / %: 97
- molecule: "CN(C)C/C=C/C(=O)Nc1cccc(C(=O)Nc2ccc(Nc3nccc(-c4cccnc4)n3)cc2)c1"
  residual activity / %: 93
- molecule: "Cc1ccc(Sc2cnc(Nc3cccc(Br)n3)s2)cc1C(=O)N1CCN(C(=O)CN)CC1"
  residual activity / %: 80
- molecule: "CC1=C(CO)C(=O)O[C@@H]([C@@H](C)[C@H]2CC[C@H]3[C@@H]4C[C@H]5O[C@]56[C@@H](O)C=CC(=O)[C@]6(C)C4CC[C@]23C)C1 (stereo not given in full)"
  residual activity / %: 92
